Data provenance: ChEMBL document CHEMBL4184137

- measurement.protocol: Selectivity index, ratio of IC50 for human NFF cells to IC50 for Trypanosoma brucei brucei
- Type: toxicity
- measurement.setup: read-out: Selectivity Index
observed.property: selectivity ratio

# input Please give the measured selectivity ratio for this compound: C/C=C1\NC(=O)[C@H]2CSSCC/C=C/[C@H](CC(=O)N[C@H](C(C)C)C(=O)N2)OC(=O)[C@H](C(C)C)NC1=O
# output < 1

----------
- measurement.protocol: Selectivity index, ratio of IC50 for African green monkey Vero cells to IC50 for Plasmodium falciparum
- Type: toxicity
- measurement.setup: read-out: Ratio IC50
observed.property: selectivity ratio

# input Please give the measured selectivity ratio for this molecule: Cn1cc(C(=O)Cc2ccccc2)cc1/C=C/C(=O)NO
# output 5 to 17
